The values you see were collected from PubChem BioAssay.

experiment: small-molecule binders of probe aInhba, primary screen, biochemical, small-molecule microarray, 635/667 nm fluorescence (AID 1148); conditions: higher = more signal;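 further: score merges 667nm spot fluorescence with signal-to-noise for antibody binding to printed compounds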
reportedMetric: composite z-score

Worked examples, 2 compounds total:
compound	composite z-score
C[C@H]1NC(=O)[C@@]23C(=O)N[C@@H](Cc4ccccc4)C2[C@H](C)[C@@]2(C)O[C@H]2C3/C=C/C/C=C\CNC(=O)[C@@H]2CCCN2C1=O (stereo partly specified)	-0.0589
COc1ccc(/C=C/C=O)cc1	-0.102

INPUT: Provide one value: measured composite z-score of `C=C[C@H](CO)NS(=O)(=O)c1ccc(Br)cc1`
OUTPUT: -0.159

INPUT: Output measured composite z-score for this item: `O=C(N1CCCCC1)[C@]1(Cc2ccccc2)N=C(c2ccc(OCCCO)cc2)O[C@@H]1c1ccccc1`
OUTPUT: 0.0074

INPUT: In one line, give reported composite z-score of the entry `CCC[C@@H]1C[C@@]1(CCC)[C@@H](NC(=O)c1ccccc1)c1cccc(Cl)c1` .
OUTPUT: 1.32

INPUT: Answer with the recorded composite z-score for the compound listed here: `C[N+](C)(C)CCCCNC(=O)[C@H]1C[C@H]2C(=O)N3CCC[C@H]3C(=O)N2[C@H]1c1cccc(OCCO)c1`
OUTPUT: 0.0569

INPUT: Return composite z-score for the following compound: `COCCCNC(=O)[C@@]1(C)c2ccccc2C(=O)N(C(C)C)[C@H]1c1ccc(CO)cc1`
OUTPUT: 0.143
